- experimental_system: GAL1R (Homo sapiens)
- Sequence (P47211 whole entry, species assumed): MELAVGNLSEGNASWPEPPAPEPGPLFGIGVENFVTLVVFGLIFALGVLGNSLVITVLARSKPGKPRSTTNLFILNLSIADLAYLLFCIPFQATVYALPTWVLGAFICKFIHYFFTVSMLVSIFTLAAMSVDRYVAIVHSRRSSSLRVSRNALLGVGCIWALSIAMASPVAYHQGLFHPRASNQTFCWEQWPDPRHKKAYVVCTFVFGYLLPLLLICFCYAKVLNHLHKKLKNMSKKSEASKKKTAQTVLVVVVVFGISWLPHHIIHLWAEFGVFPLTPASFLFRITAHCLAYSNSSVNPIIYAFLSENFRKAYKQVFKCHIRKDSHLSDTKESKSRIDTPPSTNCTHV
- protocol_details: cAMP Hunter eXpress GAL1R CHO-K1 GPCR assay (inhibition of forskolin-induced cAMP)
- Assay type: cell-based
- Design: expressed in transfected cells
- study_conditions: Table 3; CHO-K1 cells expressing GAL1R; 20 µM forskolin; 10 µM to 5 nM; (average) ratio, (n) in cell = number of assays; NA = ratio above 1000
Square brackets hold non-standard residues; d marks the D form. Ends that are not written are not given here. pGlu = O=C1CC[C@@H](C(=O)O)N1

substance: GWNLNAAGYLLGPTAVC (also: sidechain bridge or staple (positions not given here)) [Variant M85, methyllanthionine-containing galanin variant produced in L. lactis]
experimental_system: GAL1R (Homo sapiens)
EC50 ratios to Gal-(1-15), GAL1R cAMP: 11.6 (1)

substance: GWNLNAAGYLLATHACGNHR (also: sidechain bridge or staple (positions not given here)) [Variant M50, methyllanthionine-containing galanin variant produced in L. lactis]
experimental_system: GAL1R (Homo sapiens)
EC50 ratios to Gal-(1-15), GAL1R cAMP: 12.5 (1)

substance: GWNLNAAGYLLGATAVGCHR (also: sidechain bridge or staple (positions not given here)) [Variant M76, methyllanthionine-containing galanin variant produced in L. lactis]
experimental_system: GAL1R (Homo sapiens)
EC50 ratios to Gal-(1-15), GAL1R cAMP: 0.6 (1)

substance: GWNLNAAGYLLGATAVCNHR (also: sidechain bridge or staple (positions not given here)) [Variant M51, methyllanthionine-containing galanin variant produced in L. lactis]
experimental_system: GAL1R (Homo sapiens)
EC50 ratios to Gal-(1-15), GAL1R cAMP: 3.6 (1)

substance: GWNLNAAGYLLGPHTVGCHR (also: sidechain bridge or staple (positions not given here)) [Variant M52, methyllanthionine-containing galanin variant produced in L. lactis]
experimental_system: GAL1R (Homo sapiens)
EC50 ratios to Gal-(1-15), GAL1R cAMP: 7.5 (2)

substance: GWNLNAAGYLLGPHATGNCR (also: sidechain bridge or staple (positions not given here)) [Variant M74, methyllanthionine-containing galanin variant produced in L. lactis]
experimental_system: GAL1R (Homo sapiens)
EC50 ratios to Gal-(1-15), GAL1R cAMP: 4.6 (1)

substance: GWNLNAAGYLLGATAVC (also: sidechain bridge or staple (positions not given here)) [Variant M90, methyllanthionine-containing galanin variant produced in L. lactis]
experimental_system: GAL1R (Homo sapiens)
EC50 ratios to Gal-(1-15), GAL1R cAMP: 4.9 (1)

substance: [pGlu]WNLNAAGYLLGATAVCNH (also: sidechain bridge or staple (positions not given here)) [Variant M54tr, pyroglutamate- and methyllanthionine-containing galanin variant]
experimental_system: GAL1R (Homo sapiens)
EC50 ratios to Gal-(1-15), GAL1R cAMP: 16 (1)

substance: [pGlu]WNLNAAGYLLGATAVGCHR (also: sidechain bridge or staple (positions not given here)) [Variant M76b, pyroglutamate- and methyllanthionine-containing galanin variant]
experimental_system: GAL1R (Homo sapiens)
EC50 ratios to Gal-(1-15), GAL1R cAMP: 12.2 (1)
